Listed compounds paired with reported cytotoxicity at 70.5 h
# ASSAY_COMMENT: Human HepG2 cell viability assay in 384 well format
# Format: toxicity, cell-based
# Parameters: dose 125 nL, time 70.5 hour; concentration not given beside the values
# EXPERIMENTAL_CONDITIONS: HepG2 cells, read-out: Inhibition
Field format: number, assumed %, no unit text.

Solved cases (3 shown):
Bench note: what cytotoxicity at 70.5 h did "FC(F)(F)Sc1ccccc1NCc1nc(C2CC2)no1" show?
16.7

Request: CCOCCNC(=O)C1CCC(=O)N(CCc2ccc(Cl)cc2)C1 (stereo unspecified)
-3.36

Request: "Cc1cnnn1Cc1nnn2c1CN(Cc1cccs1)CCC2"
-1.92

New cases:
Bench note: what cytotoxicity at 70.5 h did CCc1cnc(CN(C(C)=O)C2CCN(CCc3cnn(C)c3)C2)o1 (stereo unspecified) show?
2.5

Request: O=C(NC1CCCN(c2ccccc2F)C1)c1ccon1 (stereo unspecified)
-9.69

Request: "COCCN1C[C@@H]2[C@@H](OC)CCN(Cc3ccsc3)[C@@H]2C1"
-2.68

Request: Cc1ccc(C)c(-n2ncc(C(=O)NCC3COC(C)(C)O3)c2N)c1 (stereo unspecified)
18.9

Request: CC(c1nc(C2CC2)no1)N1CCC(NS(=O)(=O)c2cccs2)CC1 (stereo unspecified)
-13.4

Request: "Cc1nnnn1CCC(=O)N1CCC2(CCC(=O)N(CC3CC3)C2)CC1"
-8.64

Request: OCC1(O)CCCN(Cc2nnc(-c3ccccc3)o2)CC1 (stereo unspecified)
-7.78

Request: "c1cncc(COCc2nnc3n2CCN(Cc2ccoc2)C3)c1"
-9.66

----------
# ASSAY_COMMENT: Human HepG2 cell viability assay in 384 well format
# Type: toxicity, cell-based
# Parameters: dose 125 nL, time 70.5 hour; concentration not given beside the values
# EXPERIMENTAL_CONDITIONS: HepG2 cells, read-out: Inhibition
READOUT_NAME: cytotoxicity at 70.5 h (%)
Field format: number, assumed %, no unit text.

Bench note: what cytotoxicity at 70.5 h did O=C(NCc1cc[nH]n1)N(CCCO)C1CCc2ccccc21 (configuration not stated) show?
-0.509

Request: CC(C)(C)n1ncc(NCC(O)c2ccccc2C(F)(F)F)c(Cl)c1=O (configuration not stated)
23.5

Request: "CN(Cc1ccc(CCC(C)(C)O)cc1)CC1(CO)CC1"
-10.9

Request: CS(=O)(=O)N1CCC(C(=O)NC(Cc2ccsc2)c2ccccn2)CC1 (configuration not stated)
-3.67

Request: "CNC(=O)N1CCc2cc(C(=O)N(C)C)c(NCC3CC3)nc2CC1"
-12

New cases:
Bench note: what cytotoxicity at 70.5 h did "O=C(O)[C@@H]1CN(C(=O)c2ccc3nccnc3c2)C[C@H]1c1ccncc1" show?
-7.07

Request: "CC(C)c1cc(C(=O)NCCN2CCOCC2)nc(N2CCCC2)n1"
-3.85

Request: "COc1cc(N2CCC3(CC2)CN(C)C(=O)CO3)ncn1"
16.1

Request: CCCc1n[nH]c(C2CN(Cc3nnc(C4CCC4)o3)CCO2)n1 (configuration not stated)
-5.35

Request: "Cn1ccnc1CN1C[C@H]2CN(S(=O)(=O)c3ccccc3)CCN2C1=O"
-2.62

Request: CCN(Cc1ccc2c(c1)OCO2)C(=O)NC(C)Cn1ccnc1 (configuration not stated)
1.66
